Every entry's value here was drawn from ChEMBL document CHEMBL1146703.

# Test system: Escherichia coli
# test-method-notes: Antibacterial activity against Escherichia coli at </=64 ug/mL; No activity
# Type: functional, organism-based

- compound: "C[C@@H](c1ccccc1)[C@@H]1NC(=O)CNC(=O)[C@H](COC(=O)C(c2ccccc2)c2ccccc2)NC(=O)[C@@H]([C@@H](O)[C@@H]2CNC(N)N2[C@H]2O[C@H](CO)[C@@H](O)[C@H](O)[C@@H]2O)NC(=O)[C@H]([C@@H](O)[C@@H]2CNC(N)N2)NC(=O)[C@@H](Cc2ccc(O[C@H]3O[C@H](CO)[C@@H](O[C@H]4O[C@H](CO)[C@@H](O)[C@H](O)[C@@H]4O)[C@H](O)[C@@H]3O)cc2)NC1=O (stereo partly drawn)"
  target-entity: "Escherichia coli"
  MIC: "No activity"
- compound: "C[C@@H](c1ccccc1)[C@@H]1NC(=O)CNC(=O)[C@H](CO)NC(=O)[C@@H]([C@@H](O)[C@@H]2CNC(N)N2[C@H]2O[C@H](CO)[C@@H](O)[C@H](O)[C@@H]2O)NC(=O)[C@H]([C@@H](O)[C@@H]2CNC(N)N2)NC(=O)[C@@H](Cc2ccc(O[C@H]3O[C@H](CO)[C@@H](O[C@H]4O[C@H](CO)[C@@H](O)[C@H](O)[C@@H]4O)[C@H](O)[C@@H]3O)cc2)NC1=O (stereo partly drawn)"
  target-entity: "Escherichia coli"
  MIC: "No activity"
- compound: "C[C@@H](c1ccccc1)[C@@H]1NC(=O)CNC(=O)[C@H](CO)NC(=O)[C@@H]([C@@H](O)[C@@H]2CNC(N)N2[C@H]2O[C@H](CO)[C@@H](O)[C@H](O)[C@@H]2O)NC(=O)[C@H]([C@@H](O)[C@@H]2CNC(N)N2)NC(=O)[C@@H](Cc2ccc(O[C@H]3O[C@H](CO)[C@@H](O[C@H]4O[C@H](COC(=O)CCC5CCCC5)[C@@H](O)[C@H](O)[C@@H]4O)[C@H](O)[C@@H]3O)cc2)NC1=O (stereo partly drawn)"
  target-entity: "Escherichia coli"
  MIC: "No activity"

----------
# Test system: Escherichia coli
# test-method-notes: Antibacterial activity against Escherichia coli at </=64 ug/mL; No activity
# Assay type: functional, organism-based

- compound: "CC(C)CC(=O)O[C@@H]1[C@@H](O[C@H]2[C@H](O)[C@H](O)[C@@H](Oc3ccc(C[C@H]4NC(=O)[C@H]([C@@H](C)c5ccccc5)NC(=O)CNC(=O)[C@H](CO)NC(=O)[C@@H]([C@@H](O)[C@@H]5CNC(N)N5[C@H]5O[C@H](CO)[C@@H](O)[C@H](O)[C@@H]5O)NC(=O)[C@H]([C@@H](O)[C@@H]5CNC(N)N5)NC4=O)cc3)O[C@@H]2CO)O[C@H](CO)[C@@H](O)[C@@H]1O (some centres not stated)"
  MIC: "No activity"
- compound: "CCCCCCC(=O)OC[C@@H]1NC(=O)[C@@H]([C@@H](O)[C@@H]2CNC(N)N2[C@H]2O[C@H](CO)[C@@H](O)[C@H](O)[C@@H]2O)NC(=O)[C@H]([C@@H](O)[C@@H]2CNC(N)N2)NC(=O)[C@@H](Cc2ccc(O[C@H]3O[C@H](CO)[C@@H](O[C@H]4O[C@H](CO)[C@@H](O)[C@H](O)[C@@H]4O)[C@H](O)[C@@H]3O)cc2)NC(=O)[C@H]([C@@H](C)c2ccccc2)NC(=O)CNC1=O (some centres not stated)"
  MIC: "No activity"
